# System: B16 mouse melanoma cells
# method.notes: cell viability in the B16 cell-based assay (Viability, B16 IC50)
# condition.context: Mus musculus, B16, read-out: Viability, B16 IC50

[
  {
    "compound": "COCCOc1ccc(-c2ccc(C(C)(C)NC(=O)OC3CN4CCC3CC4)cc2)nc1 (centres unmarked) [Example 308]",
    "test.system": "B16 mouse melanoma cells",
    "measurement.units": "µM",
    "relation.operator": "=",
    "IC50": 7.77
  },
  {
    "compound": "COCCOc1ccc(-c2ccc(C3(NC(=O)OC4CN5CCC4CC5)CC3)cc2)cc1 (centres unmarked) [Example 166]",
    "test.system": "B16 mouse melanoma cells",
    "measurement.units": "µM",
    "relation.operator": "=",
    "IC50": 0.316
  },
  {
    "compound": "O=C(NC1(c2ccc(-c3ccc(COCc4cccnc4)cc3)cc2)CC1)OC1CN2CCC1CC2 (centres unmarked) [Example 216]",
    "test.system": "B16 mouse melanoma cells",
    "measurement.units": "µM",
    "relation.operator": "=",
    "IC50": 7.94
  },
  {
    "compound": "COCC1(CS(=O)(=O)c2ccc(-c3ccc(C(C)(C)NC(=O)OC4CN5CCC4CC5)cc3)cc2)CC1 (centres unmarked) [Example 249]",
    "test.system": "B16 mouse melanoma cells",
    "measurement.units": "µM",
    "relation.operator": "≥",
    "IC50": 10
  },
  {
    "compound": "CC(C)(NC(=O)OC1CN2CCC1CC2)c1ccc(-c2ccc(C(=O)N3CCCCC3)cc2)cc1 (centres unmarked) [Example 262]",
    "test.system": "B16 mouse melanoma cells",
    "measurement.units": "µM",
    "relation.operator": "≥",
    "IC50": 10
  },
  {
    "compound": "CNC(=O)c1ccc(-c2ccc(C(C)(C)NC(=O)OC3CN4CCC3CC4)cc2)cc1 (centres unmarked) [Example 252]",
    "test.system": "B16 mouse melanoma cells",
    "measurement.units": "µM",
    "relation.operator": "≥",
    "IC50": 10
  },
  {
    "compound": "COCCOc1ccc(-c2ccc(C(C)(C)NC(=O)OC3CN4CCC3CC4)cc2)cc1 (centres unmarked) [Example 155]",
    "test.system": "B16 mouse melanoma cells",
    "measurement.units": "µM",
    "relation.operator": "=",
    "IC50": 1
  },
  {
    "compound": "COCCOc1ccc(-c2cccc(C(C)(C)NC(=O)OC3CN4CCC3CC4)c2)nc1 (centres unmarked) [Example 309]",
    "test.system": "B16 mouse melanoma cells",
    "measurement.units": "µM",
    "relation.operator": "≥",
    "IC50": 10
  }
]
